src = ChEMBL document CHEMBL5726876

Listed molecules paired with reported IC50
experiment: Cell-based activity under Prompt Conditions: Cell-based activity under Prompt Conditions. Rat or human NHE3-mediated Na+-dependent H+ antiport was measured using a modification of the pH sensitive dye method originally reported by Paradiso (PNAS USA. 81:7436-7440, 1984). Opossum kidney (OK) cells were obtained from the ATCC and propagated per their instructions. The rat NHE3 gene (GenBank M85300) or the human NHE3 gene (GenBank NM_004174.1) was introduced into OK cells via electroporation, and cells were seeded into 96 well plates and grown overnight. Medium was aspirated from the wells, cells were washed twice with NaCl-HEPES buffer (100 mM NaCl, 50 mM HEPES, 10 mM glucose, 5 mM KCl, 2 mM CaCl2, 1 mM MgCl2, pH 7.4), then incubated for 30 min at room temperature with NH4Cl-HEPES buffer (20 mM NH4Cl, 80 mM NaCl, 50 mM HEPES, 5 mM KCl, 2 mM CaCl2, 1 mM MgCl2, pH 7.4) containing 5 μM bis(acetoxymethyl) 3,3′-(3′,6′-bis(acetoxymethoxy)-5-((acetoxymethoxy)carbonyl)-3-oxo-3H-spiro[isobenzofuran-1,9′-xanthene]-2′,7′-diyl)dipropanoate (BCECF-AM).Cells were washed twice with Ammonium free, Na+-free HEPES (100 mM choline, 50 mM HEPES, 10 mM glucose, 5 mM KCl, 2 mM CaCl2, 1 mM MgCl2, pH 7.4) and incubated in the same buffer for 10 minutes at room temperature to lower intracellular pH. […] Initial rates were plotted as the average 2 or more replicates, and pIC50 values were estimated using GraphPad Prism.

These solved cases illustrate the format of a correct answer.
CHEMICAL_STRING	PROPERTY	READING
NC(N)=Nc1nc(-c2ccc(N3CCN(CCOCCOCCNC(=O)[C@H](O)[C@@H](O)C(=O)NCCOCCOCCN4CCN(c5ccc(-c6nc(N=C(N)N)nc7ccc(Cl)cc67)cc5)CC4)CC3)cc2)c2cc(Cl)ccc2n1	IC50	79.4 nM
C=CC(=O)NCCOCCOCCOCCNS(=O)(=O)c1cccc([C@@H]2CN(C)Cc3c(Cl)cc(Cl)cc32)c1	IC50	200 nM
CN(C)CC(=O)NC(CCC(=O)N(C)CCOCCOCCNS(=O)(=O)c1cccc([C@@H]2CN(C)Cc3c(Cl)cc(Cl)cc32)c1)(CCC(=O)N(C)CCOCCOCCNS(=O)(=O)c1cccc([C@@H]2CN(C)Cc3c(Cl)cc(Cl)cc32)c1)CCC(=O)N(C)CCOCCOCCNS(=O)(=O)c1cccc([C@@H]2CN(C)Cc3c(Cl)cc(Cl)cc32)c1	IC50	31.6 nM
CN1Cc2c(Cl)cc(Cl)cc2[C@H](c2cccc(S(=O)(=O)NCCOCCOCCOCCNC(=O)CN(CCN(CC(=O)O)CC(=O)NCCOCCOCCOCCNS(=O)(=O)c3cccc([C@@H]4CN(C)Cc5c(Cl)cc(Cl)cc54)c3)CC(=O)O)c2)C1	IC50	10 nM
CN1Cc2c(Cl)cc(Cl)cc2[C@H](c2cccc(S(=O)(=O)NCCOCCOCCNC(=O)CCC(CCC(=O)NCCOCCOCCNS(=O)(=O)c3cccc([C@@H]4CN(C)Cc5c(Cl)cc(Cl)cc54)c3)(CCC(=O)NCCOCCOCCNS(=O)(=O)c3cccc([C@@H]4CCN(C)c5c(Cl)cc(Cl)cc54)c3)NC(=O)[C@H]3CCCC[C@@H]3C(=O)O)c2)C1	IC50	126 nM

Q: Sample CN(C)[C@H]1Cc2c(Cl)cc(Cl)cc2[C@@H]1Oc1ccc(S(=O)(=O)NCCOCCOCCNC(=O)Nc2ccc(NC(=O)NCCOCCOCCNS(=O)(=O)c3ccc(O[C@H]4c5cc(Cl)cc(Cl)c5C[C@@H]4N(C)C)cc3)cc2)cc1 — what was its IC50?
Result: < 10000 nM

Q: Sample CCOCCOCCC(=O)N(CCNC(=O)NCCOCCOCCNS(=O)(=O)c1cccc([C@@H]2CN(C)Cc3c(Cl)cc(Cl)cc32)c1)CCNC(=O)NCCOCCOCCNS(=O)(=O)c1cccc([C@@H]2CN(C)Cc3c(Cl)cc(Cl)cc32)c1 — what was its IC50?
Result: 158 nM

Q: Sample C/C(=C\c1cc(F)c(Oc2ccc(S(=O)(=O)NCCOCCOCCOCCNC(=O)NCCOCCOCCNC(=O)NCCOCCOCCOCCNS(=O)(=O)c3ccc(Oc4c(F)cc(/C=C(\C)C(=O)N=C(N)N)cc4F)cc3)cc2)c(F)c1)C(=O)N=C(N)N — what was its IC50?
Result: 100 nM

Q: Sample CN1Cc2c(Cl)cc(Cl)cc2[C@H](c2cccc(S(=O)(=O)NCCOCCOCCOCCNC(=O)CN(CCN(CC(=O)NCCOCCOCCOCCNS(=O)(=O)c3cccc([C@@H]4CN(C)Cc5c(Cl)cc(Cl)cc54)c3)CC(=O)NCCOCCOCCOCCNS(=O)(=O)c3cccc([C@@H]4CN(C)Cc5c(Cl)cc(Cl)cc54)c3)CCN(CC(=O)NCCOCCOCCOCCNS(=O)(=O)c3cccc([C@@H]4CN(C)Cc5c(Cl)cc(Cl)cc54)c3)CC(=O)NCCOCCOCCOCCNS(=O)(=O)c3cccc([C@@H]4CN(C)Cc5c(Cl)cc(Cl)cc54)c3)c2)C1 — what was its IC50?
Result: 501 nM

Q: Sample CN(C)[C@H]1Cc2ccc(F)cc2[C@@H]1Oc1ccc(S(=O)(=O)NCCOCCOCCNC(=O)NCCCCNC(=O)NCCOCCOCCNS(=O)(=O)c2ccc(O[C@H]3c4cc(F)ccc4C[C@@H]3N(C)C)cc2)cc1 — what was its IC50?
Result: < 10000 nM
